Test system: caspase-3 and -7 activities in RS4-11 cells
procedureSummary: Caspase-3/7 activation (Caspase-Glo 3/7) in RS4-11 cells
Type: cell-based
conditionParameters: Homo sapiens, 3.5 h incubation, read-out: Cas-3/7 (EC50 code)
So I've got a bunch of compounds here, and I need their EC50 values.

- recordSmiles: "Cc1ccc(CN(C(=O)c2cc(-c3cc4c(cc3C(=O)N3Cc5ccccc5C[C@H]3CN3CCOCC3)OCO4)n3c2CCCC3)c2ccc(O)cc2)cc1"
  result: "> 0.25 µM"
- recordSmiles: "COCCNC(=O)c1ccc(CN(C(=O)c2cc(-c3cc4c(cc3C(=O)N3Cc5ccccc5C[C@H]3CN3CCOCC3)OCO4)n3c2CCCC3)c2ccc(O)cc2)cc1"
  result: "≤ 0.1 µM"
- recordSmiles: "COc1cccc(CN(C(=O)c2cc(-c3cc4c(cc3C(=O)N3Cc5ccccc5C[C@H]3CN3CCOCC3)OCO4)n3c2CCCC3)c2ccc(O)cc2)c1C"
  result: "≤ 0.1 µM"

Now take the following compound into account.
Req: Would you kindly share the measured EC50 for O=C(c1cc(-c2cc3c(cc2C(=O)N2Cc4ccccc4C[C@H]2CN2CCOCC2)OCO3)n2c1CCCC2)N(Cc1ccc(F)cc1)c1ccc(O)cc1 ?
Resp: > 0.25 µM

###

Test system: caspase-3 and -7 activities in RS4-11 cells
procedureSummary: Caspase-3/7 activation (Caspase-Glo 3/7) in RS4-11 cells
Type: cell-based
conditionParameters: Homo sapiens, 3.5 h incubation, read-out: Cas-3/7 (EC50 code)
Assignment: determine reported EC50 for the given molecules.

- recordSmiles: "Cc1ccccc1CN(C(=O)c1cc(-c2cc3c(cc2C(=O)N2Cc4ccccc4C[C@H]2CN2CCOCC2)OCO3)n2c1CCCC2)c1ccc(O)cc1"
  result: "≤ 100 nM"
- recordSmiles: "O=C(c1cc(-c2cc3c(cc2C(=O)N2Cc4ccccc4C[C@H]2CN2CCOCC2)OCO3)n2c1CCCC2)N(Cc1c(F)cccc1F)c1ccc(O)cc1"
  result: "> 250 nM"
- recordSmiles: "CN(C)CCNC(=O)c1ccc(CN(C(=O)c2cc(-c3cc4c(cc3C(=O)N3Cc5ccccc5C[C@H]3CN3CCOCC3)OCO4)n3c2CCCC3)c2ccc(O)cc2)cc1"
  result: "≤ 100 nM"
- recordSmiles: "O=C(c1cc(-c2cc3c(cc2C(=O)N2Cc4ccccc4C[C@H]2CN2CCOCC2)OCO3)n2c1CCCC2)N(Cc1cccc(F)c1)c1ccc(O)cc1"
  result: "> 250 nM"
- recordSmiles: "O=C(c1cc(-c2cc3c(cc2C(=O)N2Cc4ccccc4C[C@H]2CN2CCOCC2)OCO3)n2c1CCCC2)N(Cc1c(Cl)ccc(F)c1F)c1ccc(O)cc1"
  result: "> 250 nM"

Continue with the next molecule.
Req: Would you mind telling me what EC50 value was observed for Cc1cc(C(F)(F)F)ccc1CN(C(=O)c1cc(-c2cc3c(cc2C(=O)N2Cc4ccccc4C[C@H]2CN2CCOCC2)OCO3)n2c1CCCC2)c1ccc(O)cc1 ?
Resp: 100 to 250 nM

###

For each of the compounds below, state its CC50.
Test system: RS4-11 cells
procedureSummary: Cell viability assay (CellTiter-Glo), RS4-11
Type: cell-based
conditionParameters: Homo sapiens, 72 h, 3 days, read-out: RS4-11 (CC50 code)

Recorded results for 6 compounds are shown here.
- recordSmiles: "O=C(c1cc(-c2cc3c(cc2C(=O)N2Cc4ccccc4C[C@H]2CN2CCOCC2)OCO3)n2c1CCCC2)N(Cc1cccc(C(F)(F)F)c1)c1ccc(O)cc1"
  result: "100 to 200 nM"
- recordSmiles: "NC(=O)c1cccc(CN(C(=O)c2cc(-c3cc4c(cc3C(=O)N3Cc5ccccc5C[C@H]3CN3CCOCC3)OCO4)n3c2CCCC3)c2ccc(O)cc2)c1"
  result: "100 to 200 nM"
- recordSmiles: "CN1CCN(C(=O)c2cccc(CN(C(=O)c3cc(-c4cc5c(cc4C(=O)N4Cc6ccccc6C[C@H]4CN4CCOCC4)OCO5)n4c3CCCC4)c3ccc(O)cc3)c2)CC1"
  result: "> 200 nM"
- recordSmiles: "Cc1cc(C(F)(F)F)ccc1CN(C(=O)c1cc(-c2cc3c(cc2C(=O)N2Cc4ccccc4C[C@H]2CN2CCOCC2)OCO3)n2c1CCCC2)c1ccc(O)cc1"
  result: "≤ 100 nM"
- recordSmiles: "O=C(c1cc(-c2cc3c(cc2C(=O)N2Cc4ccccc4C[C@H]2CN2CCOCC2)OCO3)n2c1CCCC2)N(Cc1ccccc1Cl)c1ccc(O)cc1"
  result: "≤ 100 nM"
- recordSmiles: "COc1cccc(CN(C(=O)c2cc(-c3cc4c(cc3C(=O)N3Cc5ccccc5C[C@H]3CN3CCOCC3)OCO4)n3c2CCCC3)c2ccc(O)cc2)c1C"
  result: "≤ 100 nM"

Consider the following items and state reported CC50 for each.
1. O=C(c1cc(-c2cc3c(cc2C(=O)N2Cc4ccccc4C[C@H]2CN2CCOCC2)OCO3)n2c1CCCC2)N(Cc1ccncc1)c1ccc(O)cc1
2. O=C(c1cc(-c2cc3c(cc2C(=O)N2Cc4ccccc4C[C@H]2CN2CCOCC2)OCO3)n2c1CCCC2)N(Cc1ccccc1-c1ccccc1)c1ccc(O)cc1

Resp:
["100 to 200 nM", "> 200 nM"]

# per-item lookup of CC50; items listed below
1. Cc1cccc(CN(C(=O)c2cc(-c3cc4c(cc3C(=O)N3Cc5ccccc5C[C@H]3CN3CCOCC3)OCO4)n3c2CCCC3)c2ccc(O)cc2)c1
2. COc1ccccc1CN(C(=O)c1cc(-c2cc3c(cc2C(=O)N2Cc4ccccc4C[C@H]2CN2CCOCC2)OCO3)n2c1CCCC2)c1ccc(O)cc1
3. O=C(c1cc(-c2cc3c(cc2C(=O)N2Cc4ccccc4C[C@H]2CN2CCOCC2)OCO3)n2c1CCCC2)N(Cc1ccc(C(F)(F)F)cc1)c1ccc(O)cc1
4. O=C(c1cc(-c2cc3c(cc2C(=O)N2Cc4ccccc4C[C@H]2CN2CCOCC2)OCO3)n2c1CCCC2)N(Cc1cccnc1)c1ccc(O)cc1
5. O=C(c1cc(-c2cc3c(cc2C(=O)N2Cc4ccccc4C[C@H]2CN2CCOCC2)OCO3)n2c1CCCC2)N(Cc1ccccc1C(F)(F)F)c1ccc(O)cc1
6. COCCNC(=O)c1cccc(CN(C(=O)c2cc(-c3cc4c(cc3C(=O)N3Cc5ccccc5C[C@H]3CN3CCOCC3)OCO4)n3c2CCCC3)c2ccc(O)cc2)c1
7. O=C(c1cc(-c2cc3c(cc2C(=O)N2Cc4ccccc4C[C@H]2CN2CCOCC2)OCO3)n2c1CCCC2)N(Cc1ccc(F)cc1)c1ccc(O)cc1
8. O=C(O)c1cccc(CN(C(=O)c2cc(-c3cc4c(cc3C(=O)N3Cc5ccccc5C[C@H]3CN3CCOCC3)OCO4)n3c2CCCC3)c2ccc(O)cc2)c1

Resp:
1: ≤ 100 nM; 2: ≤ 100 nM; 3: > 200 nM; 4: > 200 nM; 5: ≤ 100 nM; 6: 100 to 200 nM; 7: > 200 nM; 8: > 200 nM

For each listed entry, give its CC50.
1. NC(=O)c1ccc(CN(C(=O)c2cc(-c3cc4c(cc3C(=O)N3Cc5ccccc5C[C@H]3CN3CCOCC3)OCO4)n3c2CCCC3)c2ccc(O)cc2)cc1
2. Cc1ccc(CN(C(=O)c2cc(-c3cc4c(cc3C(=O)N3Cc5ccccc5C[C@H]3CN3CCOCC3)OCO4)n3c2CCCC3)c2ccc(O)cc2)cc1
3. O=C(c1cc(-c2cc3c(cc2C(=O)N2Cc4ccccc4C[C@H]2CN2CCOCC2)OCO3)n2c1CCCC2)N(Cc1cccc([N+](=O)[O-])c1)c1ccc(O)cc1

Resp:
["≤ 100 nM", "100 to 200 nM", "> 200 nM"]

Kindly give each listed record's CC50.
1. O=C(c1cc(-c2cc3c(cc2C(=O)N2Cc4ccccc4C[C@H]2CN2CCOCC2)OCO3)n2c1CCCC2)N(Cc1ccccc1F)c1ccc(O)cc1
2. COCCNC(=O)c1ccc(CN(C(=O)c2cc(-c3cc4c(cc3C(=O)N3Cc5ccccc5C[C@H]3CN3CCOCC3)OCO4)n3c2CCCC3)c2ccc(O)cc2)cc1
3. Cn1cnnc1CN(C(=O)c1cc(-c2cc3c(cc2C(=O)N2Cc4ccccc4C[C@H]2CN2CCOCC2)OCO3)n2c1CCCC2)c1ccc(O)cc1

Resp:
1. ≤ 100 nM
2. ≤ 100 nM
3. ≤ 100 nM

###

testedSystem: UniProtKB P10415
Sequence (P10415 whole entry): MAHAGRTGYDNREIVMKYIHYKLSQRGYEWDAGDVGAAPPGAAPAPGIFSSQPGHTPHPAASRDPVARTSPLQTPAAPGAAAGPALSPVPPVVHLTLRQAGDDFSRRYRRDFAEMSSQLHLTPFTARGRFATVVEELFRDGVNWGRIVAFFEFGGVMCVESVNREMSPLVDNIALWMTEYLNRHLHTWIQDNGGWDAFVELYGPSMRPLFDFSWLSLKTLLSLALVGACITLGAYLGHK
Assign IC50 to each entry below.

The examples below pair each entry with its known result.
- recordSmiles: "O=C(c1cc(-c2cc3c(cc2C(=O)N2Cc4ccccc4C[C@H]2CN2CCOCC2)OCO3)n2c1CCCC2)N(Cc1ccc(C(F)(F)F)cc1)c1ccc(O)cc1"
  IC50: "10 to 50 nM"
- recordSmiles: "COc1c(C)cnc(CN(C(=O)c2cc(-c3cc4c(cc3C(=O)N3Cc5ccccc5C[C@H]3CN3CCOCC3)OCO4)n3c2CCCC3)c2ccc(O)cc2)c1C"
  IC50: "10 to 50 nM"

Please look at the items below and tell me IC50 for each one, in order.
1. COc1cccc(CN(C(=O)c2cc(-c3cc4c(cc3C(=O)N3Cc5ccccc5C[C@H]3CN3CCOCC3)OCO4)n3c2CCCC3)c2ccc(O)cc2)c1C
2. N#Cc1ccccc1CN(C(=O)c1cc(-c2cc3c(cc2C(=O)N2Cc4ccccc4C[C@H]2CN2CCOCC2)OCO3)n2c1CCCC2)c1ccc(O)cc1
3. O=C(c1cc(-c2cc3c(cc2C(=O)N2Cc4ccccc4C[C@H]2CN2CCOCC2)OCO3)n2c1CCCC2)N(Cc1ccncc1)c1ccc(O)cc1
4. O=C(c1cc(-c2cc3c(cc2C(=O)N2Cc4ccccc4C[C@H]2CN2CCOCC2)OCO3)n2c1CCCC2)N(Cc1cccnc1)c1ccc(O)cc1
5. Cc1cccc(C)c1CN(C(=O)c1cc(-c2cc3c(cc2C(=O)N2Cc4ccccc4C[C@H]2CN2CCOCC2)OCO3)n2c1CCCC2)c1ccc(O)cc1
6. O=C(c1cc(-c2cc3c(cc2C(=O)N2Cc4ccccc4C[C@H]2CN2CCOCC2)OCO3)n2c1CCCC2)N(Cc1ccc(F)cc1)c1ccc(O)cc1
7. O=C(c1cc(-c2cc3c(cc2C(=O)N2Cc4ccccc4C[C@H]2CN2CCOCC2)OCO3)n2c1CCCC2)N(Cc1cccc([N+](=O)[O-])c1)c1ccc(O)cc1

Resp:
1. ≤ 5 nM
2. > 50 nM
3. ≤ 5 nM
4. 5 to 10 nM
5. > 50 nM
6. 10 to 50 nM
7. > 50 nM

Please state IC50 for every molecule in the list that follows.
1. O=C(c1cc(-c2cc3c(cc2C(=O)N2Cc4ccccc4C[C@H]2CN2CCOCC2)OCO3)n2c1CCCC2)N(Cc1cccc(F)c1)c1ccc(O)cc1
2. CN(C)CCNC(=O)c1cccc(CN(C(=O)c2cc(-c3cc4c(cc3C(=O)N3Cc5ccccc5C[C@H]3CN3CCOCC3)OCO4)n3c2CCCC3)c2ccc(O)cc2)c1
3. Cc1cccc(F)c1CN(C(=O)c1cc(-c2cc3c(cc2C(=O)N2Cc4ccccc4C[C@H]2CN2CCOCC2)OCO3)n2c1CCCC2)c1ccc(O)cc1

Resp:
1: 10 to 50 nM; 2: ≤ 5 nM; 3: 10 to 50 nM
